# CONDITION SUMMARY: human gut metagenome, 24 h, 2 µM; note: call rule not given here
QUANTITY NAME: Bacterial Biotransformation

Check out these entries, answers already filled in.
compound=CC[C@H](C)C(=O)O[C@H]1CCC=C2C=C[C@H](C)[C@H](CC[C@@H]3C[C@@H](O)CC(=O)O3)[C@H]21 quantity_name="Bacterial Biotransformation" result="Compound NOT metabolized"
compound=COc1ccc(Cc2nccc3cc(OC)c(OC)cc23)cc1OC quantity_name="Bacterial Biotransformation" result="Compound metabolized"
compound=CCOC(=O)[C@H](CCc1ccccc1)N[C@@H](C)C(=O)N1Cc2ccccc2C[C@H]1C(=O)O quantity_name="Bacterial Biotransformation" result="Compound metabolized"
compound="CCCCC(=O)O[C@]1(C(=O)CO)[C@@H](C)C[C@H]2[C@@H]3CCC4=CC(=O)C=C[C@]4(C)[C@@]3(F)[C@@H](O)C[C@@]21C [BETAMETHASONE VALERATE]" quantity_name="Bacterial Biotransformation" result="Compound NOT metabolized"
compound="Cc1nc(Nc2ncc(C(=O)Nc3c(C)cccc3Cl)s2)cc(N2CCN(CCO)CC2)n1 [DASATINIB ANHYDROUS]" quantity_name="Bacterial Biotransformation" result="Compound metabolized"
compound="CC(C)NCC(O)COc1ccc(CC(N)=O)cc1 (configuration not stated)" quantity_name="Bacterial Biotransformation" result="Compound NOT metabolized"

Prompt: Give the value of Bacterial Biotransformation reported for the following: C=C[C@H]1CN2CC[C@H]1C[C@H]2[C@H](O)c1ccnc2ccc(OC)cc12.C=C[C@H]1CN2CC[C@H]1C[C@H]2[C@H](O)c1ccnc2ccc(OC)cc12.O.O.O=S(=O)(O)O [QUININE SULFATE]
Completion: Compound NOT metabolized
